The following binders are shown together with reported kon values.
SYSTEM UNDER TEST: T1, amino acid residues 26-148 of human ANGPTL4 fused in-line to mouse IgG2a (hANGPTL4-mFc) (human)
T1 construct: contains the N-terminal coiled-coil region
T1 chain: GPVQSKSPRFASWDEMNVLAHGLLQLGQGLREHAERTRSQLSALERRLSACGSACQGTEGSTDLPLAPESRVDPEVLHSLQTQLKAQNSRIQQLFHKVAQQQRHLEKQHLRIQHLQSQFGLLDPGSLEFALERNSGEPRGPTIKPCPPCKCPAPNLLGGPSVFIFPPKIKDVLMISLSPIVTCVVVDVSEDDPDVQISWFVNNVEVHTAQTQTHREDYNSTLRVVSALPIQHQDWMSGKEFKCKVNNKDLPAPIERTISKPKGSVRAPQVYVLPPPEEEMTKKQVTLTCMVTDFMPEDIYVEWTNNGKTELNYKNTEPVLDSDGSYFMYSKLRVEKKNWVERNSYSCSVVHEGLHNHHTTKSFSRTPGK
MEASUREMENT NOTES: SPR (Biacore), 25° C., pH 5.75, antigen captured by anti-mFc
Write the value in M⁻¹ s⁻¹ as a bare number.

H1H284P (antibody, V domains shown, also called entire H1H284 mAb; Full mAb) VH: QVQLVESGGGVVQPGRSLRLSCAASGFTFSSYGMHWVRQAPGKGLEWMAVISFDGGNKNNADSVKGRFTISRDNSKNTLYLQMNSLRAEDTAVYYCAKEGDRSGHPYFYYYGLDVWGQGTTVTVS VL: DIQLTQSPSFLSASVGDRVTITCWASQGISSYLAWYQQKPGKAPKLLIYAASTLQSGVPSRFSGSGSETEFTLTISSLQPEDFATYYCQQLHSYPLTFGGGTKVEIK
1.09e+06
H1H268P Fab fragment (Fab, V domains shown, Fab made by papain digestion of H1H268P (IgG1); also called H1H268 Fab) VH: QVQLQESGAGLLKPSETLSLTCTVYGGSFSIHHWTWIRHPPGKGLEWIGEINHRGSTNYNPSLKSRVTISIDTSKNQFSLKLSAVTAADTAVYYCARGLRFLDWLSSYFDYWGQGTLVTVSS VL: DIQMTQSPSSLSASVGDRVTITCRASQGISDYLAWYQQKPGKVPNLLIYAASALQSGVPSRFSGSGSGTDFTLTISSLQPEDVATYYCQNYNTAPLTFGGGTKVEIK
174000
H1H284P Fab fragment (Fab, V domains shown, Fab made by papain digestion of H1H284P (IgG1); also called H1H284 Fab) VH: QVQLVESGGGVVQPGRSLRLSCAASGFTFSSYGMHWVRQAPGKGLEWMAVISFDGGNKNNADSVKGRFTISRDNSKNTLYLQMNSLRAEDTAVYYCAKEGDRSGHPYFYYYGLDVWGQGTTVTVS VL: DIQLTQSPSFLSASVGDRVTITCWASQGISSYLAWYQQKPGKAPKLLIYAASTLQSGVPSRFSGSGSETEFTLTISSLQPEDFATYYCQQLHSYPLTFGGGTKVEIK
472000

Lab note: next binder to report on.
Q) # lookup: kon of H1H268P (antibody, V domains shown, also called entire H1H268 mAb; Full mAb) VH: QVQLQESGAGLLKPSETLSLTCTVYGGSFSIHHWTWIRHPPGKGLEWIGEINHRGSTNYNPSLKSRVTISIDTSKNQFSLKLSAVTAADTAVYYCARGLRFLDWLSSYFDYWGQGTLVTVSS VL: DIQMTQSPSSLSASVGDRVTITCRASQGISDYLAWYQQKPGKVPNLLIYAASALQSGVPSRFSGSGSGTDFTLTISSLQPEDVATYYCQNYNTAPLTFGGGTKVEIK
A) 628000
